tested on: B16F0 melanoma tumour; assay: Biodistribution in B16 melanoma bearing mice; format: in vivo, C57BL/6J mice; conditions: B16 melanoma bearing mice, 6 h
Give measured uptake THYROID for each item. Keep answers brief.
Your answer should be a plain number; it is taken to be in % ID/g.

Query: For the molecule shown here, CCCCN(C)CCCCNC(=O)c1ccc(F)nc1 [[^18F]MEL4] , give the reported uptake THYROID.
Result: 1.98

Query: Find the recorded uptake THYROID belonging to CCN(CC)CCNC(=O)c1ccc(F)nc1 [[^18F]MEL2] and report it.
Result: 0.168

Query: Entry CCN(CC)CCNC(=O)c1ccnc(F)c1 [[^18F]MEL8] has what uptake THYROID?
Result: 1.02

Query: Which uptake THYROID value belongs to CCN(CC)CCNC(=O)c1cccnc1F [[^18F]MEL6] ?
Result: 3.2
